Data provenance is PubChem BioAssay.

- MEASUREMENT_DESCRIPTION: probe aNOTCH3 binding on compound microarray – biochemical, small-molecule microarray, 635/667 nm fluorescence, primary screen (AID 1120);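 also: probe is a biotin-tagged antibody raised against NOTCH3 rather than NOTCH3 protein; score merges spot fluorescence near 667 nm with spot signal to noise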
- CONDITION_DESCRIPTION: higher = more signal
Each entry gets class 0 if its composite z-score stays under 0.09, and class 1 if its composite z-score is 0.09 or above.

>>> category_label("C=CCOC(=O)[C@@H]1[C@H]2C(=O)O[C@H](c3ccccc3)[C@H](c3ccccc3)N2[C@H](c2ccc(OCCOC(=O)[C@H]3C[C@H]4C(=O)NCC(=O)N4[C@H]3c3cccc(OCCO)c3)cc2)[C@@]12C(=O)Nc1ccc(I)cc12")
"class 0"
>>> category_label("CN1C(=O)C2C(C3CC3)C=C3CN(Cc4cccc(Cl)c4)[C@@H]([C@@H](O)Cc4ccccc4)C3C2C1=O (some centres not stated)")
"class 1"
>>> category_label("Cc1ccc(C(C)CC(O)C2C=CC3C(=O)N(C)C(=O)C3N2Nc2ccccc2)o1 (configuration not stated)")
"class 1"
>>> category_label("COC(=O)[C@]1(Cc2ccccc2)N=C(c2ccc(OCCCO)cc2)O[C@@H]1c1ccccc1CN=[N+]=[N-]")
"class 0"
>>> category_label("CN(C)CCCNC(=O)[C@@]1(Cc2ccccc2I)c2ccccc2C(=O)N(C2CCCCC2)[C@H]1c1ccc(CO)cc1")
"class 1"
>>> category_label("CCOC(=O)C1=C[C@@H](C(C)(C)C)N(S(=O)(=O)c2ccc(C)cc2)[C@H]1c1ccc(C#N)cc1")
"class 1"
>>> category_label("COC(=O)[C@@]1(Cc2ccc(OC)cc2)[C@H]2c3cc(C(=O)N4CCCC4)n(CCn4cc([N+](=O)[O-])nc4C)c3C[C@H]2CN1C(=O)c1ccccc1")
"class 1"

* * *

- TESTED_SYSTEM: Torsin-1A (Homo sapiens) (UniProt O14656)
- Sequence (O14656 whole entry, looked up): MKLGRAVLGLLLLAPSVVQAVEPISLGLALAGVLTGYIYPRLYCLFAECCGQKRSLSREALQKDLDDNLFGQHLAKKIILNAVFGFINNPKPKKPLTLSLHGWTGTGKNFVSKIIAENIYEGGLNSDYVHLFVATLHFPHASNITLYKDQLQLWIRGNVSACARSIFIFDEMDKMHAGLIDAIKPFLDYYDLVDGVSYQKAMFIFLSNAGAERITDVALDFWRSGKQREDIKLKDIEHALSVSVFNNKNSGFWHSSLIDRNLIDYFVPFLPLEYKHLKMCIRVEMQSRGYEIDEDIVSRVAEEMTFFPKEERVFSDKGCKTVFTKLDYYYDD
- MEASUREMENT_DESCRIPTION: TOR1A wild-type binding on microarray – cell lysate, small-molecule microarray, lysate, 635/667 nm, primary screen (AID 1149)
- CONDITION_DESCRIPTION: COS7 hTOR1A-WT lysate, 635 nm fluorescence, higher = more signal
Rule: Criterion met for composite z-score not less than 0.4, Criterion not met for anything less.

>>> category_label("O=C1NC(=O)C2C1C=CC(C(O)c1ccc([N+](=O)[O-])cc1)N2Nc1ccccn1 (configuration not stated)")
"Criterion met"
>>> category_label("COC(=O)[C@@]1(Cc2ccc(OC)cc2)[C@H]2c3cc(C(=O)N4CCCC4)n(Cc4ccc(C(F)(F)F)nc4)c3C[C@H]2CN1C(=O)c1ccccc1")
"Criterion met"
>>> category_label("O=C1NC(=O)C2C1C=CC(C(O)c1ccc(B(O)O)cc1)N2Nc1ccc(Cl)cc1Cl (configuration not stated)")
"Criterion not met"
>>> category_label("C=CCC(OC(C)=O)[C@@H]1[C@@H](N(Cc2cc3ccccc3o2)C(=O)c2cccc3ccccc23)c2cc(OCCCO)ccc2N1C(=O)c1ccc2ccccc2n1 (some centres not stated)")
"Criterion met"
>>> category_label("N#Cc1ccc(-c2cccc(=O)o2)cc1")
"Criterion met"
>>> category_label("COC(=O)[C@@]1(Cc2ccc(F)cc2)[C@H]2c3cc(C(=O)N4CCCC4)n(Cc4cc(F)cc5c4OCOC5)c3C[C@H]2CN1C(=O)c1ccccc1")
"Criterion not met"

* * *

# composite z-score per record follows
- TESTED_SYSTEM: Alpha-bungarotoxin (Bungarus multicinctus) (UniProt P60615)
- Sequence (P60615 whole entry, looked up): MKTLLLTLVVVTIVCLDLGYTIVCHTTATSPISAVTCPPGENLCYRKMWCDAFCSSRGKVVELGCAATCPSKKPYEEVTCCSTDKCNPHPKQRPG
- MEASUREMENT_DESCRIPTION: compounds binding labelled alpha-BTX control protein – biochemical, small-molecule microarray, Alexa647 label, 635/667 nm fluorescence, artefact control for SMM control protein annotation, profiling panel (AID 1117)
- CONDITION_DESCRIPTION: alpha-BTX-A647 binding fluorescence, higher = more signal
ASSAY_METRIC: composite z-score

>>> reading("CO[C@H]1O[C@H](CO)[C@@H](OC(=O)Nc2ccccc2-c2ccccc2)[C@H](OC(=O)Nc2ccccc2)[C@H]1OC(=O)Nc1ccccc1")
1.64
>>> reading("COc1cc(CO)cc(I)c1O[C@H]1C=C(C(=O)NCCO)C[C@@H](NC2CCCCCC2)[C@@H]1O")
0.0323
>>> reading("C[N+](C)(C)CCCC[C@@H]1NC(=O)[C@H]2C[C@@H](C(=O)NCCCCCNC(=O)CS)[C@@H](c3cccc(OCCO)c3)N2C1=O")
-0.307
>>> reading("COc1ccc(NN2C(C(O)c3ccc(I)cc3)C=CC3C(=O)N(C4CCCCC4)C(=O)C32)cc1 (stereo not given)")
1.45
>>> reading("CC1CC/C=C\\[C@H]2OC34C=CCN(CCN5CCOCC5)C(=O)[C@H]3N(CCCO)C(=O)[C@@H]4C2C(=O)O1 (stereo not given in full)")
-1.02
>>> reading("C=C(CCCC)/C(=C/C[C@H](OC(=O)c1ccncc1)c1cccc(OCCO)c1)c1cnc2ccccc2c1")
0.551
>>> reading("O=C1O[C@@H](c2ccccc2)[C@@H](c2ccccc2)N2[C@@H](c3ccc(OCCO)cc3)[C@]3(C(=O)Nc4ccc(C#CCCO)cc43)[C@@H](C(=O)O)[C@H]12")
1.95
>>> reading("CC(C)(C)N1CC=CC23O[C@@H]4C=CCCOC(=O)C4[C@H]2C(=O)N(CCCCCCO)[C@@H]3C1=O (stereo not given in full)")
1.07
>>> reading("COC(=O)[C@@]1(Cc2ccc(OC)cc2)[C@H]2c3cc(C(=O)N4CCCC4)n(Cc4ccc(C(F)(F)F)nc4)c3C[C@H]2CN1C(=O)c1ccccc1")
-0.075
>>> reading("CC(=O)c1ccc(C(O)C2C=CC3C(=O)N(c4ccccc4)C(=O)C3N2Nc2ccc(C(C)C)cc2)cc1 (stereo not given)")
0.859
>>> reading("O=C(NCCN1CCOCC1)[C@@H]1c2ccccc2C(=O)N(Cc2ccccc2C(F)(F)F)[C@H]1c1ccc(CO)cc1")
-0.755
>>> reading("CCCC[C@H]1OB(O)C[C@H]2C1=C(COc1ccccc1)C[C@H]1C(=O)C=CC(=O)[C@H]12")
-0.388
>>> reading("COCCCNC(=O)[C@@H]1c2ccccc2C(=O)N(Cc2ccc(OC(F)(F)F)cc2)[C@H]1c1ccc(CO)cc1")
0.516
>>> reading("COC(=O)C(CC#Cc1ccc2c(c1)[C@]1(C(=O)N2)[C@H](c2ccc(OCCO)cc2)N2[C@H](c3ccccc3)[C@H](c3ccccc3)OC(=O)[C@H]2[C@@H]1C(=O)N1CCCCCCC1)C(=O)OC")
2.62
>>> reading("C#CCN1[C@@H](Cc2ccccc2)C(=O)O[C@H](Cc2ccccc2)[C@@H]1/C=C/C1CC1")
0.456

* * *

- TESTED_SYSTEM: Pro-neuregulin-1, membrane-bound isoform (Homo sapiens)
- MEASUREMENT_DESCRIPTION: small molecules binding neuregulin-1 protein – biochemical, small-molecule microarray, fluorescence 635/667, psychiatric disease protein project, primary screen (AID 1075);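 also: score combines 667 nm spot fluorescence with signal to noise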
- CONDITION_DESCRIPTION: NRG1 binding, 635 nm fluorescence, higher = more signal
// reported composite z-score for each item listed
ASSAY_METRIC: composite z-score

>>> reading("C=C(C)[C@@H]1CC=C(C(O)C2C=CC3C(=O)N(C)C(=O)C3N2Nc2ccc([N+](=O)[O-])cc2[N+](=O)[O-])CC1 (some centres undefined)")
1.74
>>> reading("CCOC(=O)c1cn(C[C@H](Cc2ccccc2)NC(=O)N[C@H](CO)CCc2oc(C(C)=O)c(C(=O)OC)c2C(=O)OC)nn1")
0.553
>>> reading("C=C(CCCC)C(=O)CC[C@H](OC(=O)c1ccccc1-c1ccccc1C(=O)O)c1ccc(OCCO)cc1")
1.13
>>> reading("C=CCN1C(=O)[C@@]2(O[C@@H](CCn3cc([C@H](O)c4ccccc4)nn3)[C@H]([Si](C)(C)c3ccc(OC)cc3)[C@H]2C)c2cc(N3C(=O)c4cccc5cccc3c45)ccc21")
0.548

* * *

- MEASUREMENT_DESCRIPTION: small molecules captured by biotinylated probe aFSTL3 – biochemical, small-molecule microarray, fluorescence 635/667, stem cell growth factor project, primary screen (AID 1064);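 also: measures binding of the biotinylated anti-FSTL3 antibody to printed compounds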
- CONDITION_DESCRIPTION: higher = more signal
ASSAY_METRIC: composite z-score

>>> reading("C=CCC(OC(C)=O)[C@@H]1[C@@H](N(Cc2cc3ccccc3o2)C(=O)c2cccc3ccccc23)c2cc(OCCCO)ccc2N1C(=O)c1ccc2ccccc2n1 (stereo partly drawn)")
1.68
>>> reading("Cc1ccc(N2C(=O)c3ccccc3[C@](C)(C(=O)NCCCN(C)C)[C@@H]2c2ccc(CO)cc2)nc1")
0.908
>>> reading("COC(=O)C(CC#Cc1ccc2c(c1)[C@]1(C(=O)N2)[C@H](C(=O)NC[C@H](O)c2ccccc2)[C@H]2C(=O)O[C@H](c3ccccc3)[C@H](c3ccccc3)N2[C@@H]1c1ccccc1OCCO)C(=O)OC")
-0.266
